tested on: MS2 coat protein; assay: apparent Kd, MS2 coat protein; higher = weaker binding; RNA-MaP array; FMN 200 µM where present; conditions: ligand present: flavin mononucleotide; designed as: OFF switch for flavin mononucleotide
QUANTITY_MEASURED: apparent Kd (nM)
State just the number; it will be interpreted in nM.

SEQUENCE_INPUT	UNIT_TEXT	apparent Kd
GGAUAGGACAUAGGAUAUACGUGCUAGAGAUACUAGCAAAAUUUCCUCACAUGAGGAUCACCCAUGUAGAAGGCUGUCCUAUCG	nM	24.5

Entry "UAAUAAAGUGUGAGGAUAUGCUGGUCCUUGGAUCAGCAGAAGGCACAUGAGGAUCACCCAUGUAAUAUAUAAAU" ; apparent Kd = 292

Documented apparent Kd of "GGUACUCAAAGAGUACCAAUACGAACAUGAGGAUCACCCAUGUAGGAUAUGCUACUCAAAGAGUAGCAGAAGGAUAUGUGCUUA" : 15.3

The reported apparent Kd of the sequence "CGCCUGGGAGGAUAUCCAAUAUAUGACAUGAGGAUCACCCAUGUUUCCACUCGUACCUCCGGAGAAGGCCCUGCGU" was 23.5

Looking up "CGAGUGUGAGGAUAUCCAGCCGGUGGGAUUACGUCGACGCUGGAGAAGGCACAUGAGGAUCACCCAUGUGGACA" , I see its apparent Kd listed as 234

====

Some sequences, each annotated with its measured apparent Kd.
test system: MS2 coat protein; assay: apparent Kd, MS2 coat protein; higher = weaker binding; RNA-MaP array; conditions: designed as: OFF switch for flavin mononucleotide; no ligand
Return type: number; implicit unit nM.

SEQUENCE_INPUT	QUANTITY_MEASURED	UNIT_TEXT	QUANTITATIVE_RESULT
CUACCUACAGGAUAUACAUGAGGAUCACCCAUGUUUCAACGUGGAACAGGUUGAACAUGUAGAAGGGAAUCGUU	apparent Kd	nM	20.4
UGUAACACAGGAUAUACAUAGGCCAGCCACUGACUCAGGUCACAUGAGGAUCACCCAUGUAGAAGGGUGCUGAA	apparent Kd	nM	116

Record "UCGAGUACGGUGAGGAUAUCAUGAGGAUUACUACAAGAGAAGGCACAUGAGGAUCACCCAUGUGGCGACCAUUC" ; system MS2 coat protein; apparent Kd = 6.28

Form: item "ACCUGGUGUAAGAAGGAGCAGAUAUAACGGUCGCUAGGAUAUUACCCUUCAAAAUGGGAUCUCACAUGAGGAUCACCCAUGUUA" ; test system MS2 coat protein; apparent Kd: 143

The measured apparent Kd that "UACCCUCGAGGAUAUUAGCUAGCGAACAUGAGGAUCACCCAUGUGCAUCUUCCCAGCCGUUAAGAAGGCGAUUACC" showed for MS2 coat protein is 93.1

====

tested on: MS2 coat protein; assay: apparent Kd, MS2 coat protein; higher = weaker binding; RNA-MaP array; FMN 200 µM where present; details: ligand present: flavin mononucleotide; designed as: ON switch for flavin mononucleotide
QUANTITY_MEASURED: apparent Kd (µM)
Report only the number, with the unit µM understood.

Here is how some sequences turned out for apparent Kd.
SEQUENCE_INPUT	apparent Kd, µM
GUAACGCUUGACAUGAGGAUCACCCAUGUUAGAUUGUUAUGUCAGGAUAUAGUCUAGAAACUAGACUAGAAGGGAUAUGUUACU	0.0295
UGGUACUAGGGAGGAUAUGGGAAGAUACAUGAGGAUCACCCAUGUUUAAGAAUGCCAAGAGGCAACUAGAAGGCCCUAGUACCU	0.0178

GET /values?item= "GUAUGGAGUACAGGAUAUGUAAGUUUUAAGUGUAUUGGUUAUUACUUAACAACAGAAGGGUAUUACAUGAGGAUCACCCAUGUA" &system= MS2 coat protein returns apparent Kd: 0.011

====

test system: MS2 coat protein; assay: apparent Kd, MS2 coat protein; higher = weaker binding; RNA-MaP array; tryptophan 2.4 mM where present; conditions: ligand present: tryptophan; designed as: OFF switch for tryptophan
Threshold rule: apparent Kd greater than or equal to 30 nM is class 1; below that, class 0.

SEQUENCE_INPUT	CATEGORY_LABEL
GUCCAAAGGUCGGCCGCCACUGUAGAGUGUGUUCUUUCACAUGAGGAUCACCCAUGUUGUUAUUAUAGGACCGGGAUUGUAGGAC	class 0
AGAUUCGACACGGCCGCCACUCGUGGUGGAUUACCUAGUGUCGAACAUGAGGAUCACCCAUGUACGAGGACCGGGUGUUGAGUCU	class 1
UUGUGGCGCUCGGCCGCCACUCCGACAUGAGGAUCACCCAUGUUCUACAUGAGGAUCACCCAUGUGAGGACCGGGAGACACUUCC	class 1

Enquiry: In plain terms: is recorded apparent Kd at least 30 nM for "AGAUUCGACACGGCCGCCACUUGUGGUGGAUUAUCCUAUGUCGAACAUGAGGAUCACCCAUGUACAAGGACCGGGUGUUGAGUCU" ?
Return: class 1

Enquiry: Could you verify whether the entry "ACAUGUUGGUGGUAUCUACGAAGGCGGAAACGAGGACCGGUACGGCCGCCACUCGGCGACAUGAGGAUCACCCAUGUGGUUAAAA" shows apparent Kd of no less than 30 nM?
Return: class 0

Enquiry: Given the entry "UUAGUAACGACGGCCGCCACUGGAUAUGAACAUGAGGAUCACCCAUGUAGAGAUCCUAGAAUAAACAGGACCGGGUCUGAUAAUA" , answer whether its apparent Kd meets or surpasses 30 nM.
Return: class 1

Enquiry: Could you please find out whether "GUUUAAAGGUCGGCCGCCACUGUAGGAUGUGUUCUUUCACAUGAGGAUCACCCAUGUUGUUAUUAUAGGACCGGGAUUUUAGGAC" has apparent Kd that meets 30 nM or exceeds it?
Return: class 0

====

// values below are reported apparent Kd
test system: MS2 coat protein; assay: apparent Kd, MS2 coat protein; higher = weaker binding; RNA-MaP array; FMN 200 µM where present; conditions: ligand present: flavin mononucleotide; designed as: OFF switch for flavin mononucleotide
Number in nM, nothing else.

Form field apparent Kd, entry "CGAGUCGGUUGCCCUGCAGUACAUGAGGAUCACCCAUGUCGGAGAAGGUGCACAAAGGAAUCGGGCAAGGAUAUCCGGCGUGAA" : 7.98

Sure, the documented apparent Kd for "UCCAGGUAAGGAUAUGGGCUGGACACCGGGUACGGCCAGCACCAGAAGGUACAUGAGGAUCACCCAUGUGUUCC" is 274

Sure, the documented apparent Kd for "GGAUGGUAGGGAGGAUAUGACAUGAGGAUCACCCAUGUGAAACGUCCUAGGUCAGAAGGCCCAUAAGUCAAAACCCAAAAUGUG" is 153

Note to self: apparent Kd recorded for "CCGUGGCAAGGAUAUACAUAGGAGAGGAAGGCAAGAGGUGGACAUGAGGAUCACCCAUGUAGAAGGUGCAGAUC" was 236

# apparent Kd (sequence: "CUUUGAUGAGGAUAUCGAGGUUAGUACAUGAGGAUCACCCAUGUUAUCCAGGUGUCGGUUCGAGAAGGUAUUGGAC" ) is 18.5

The measured apparent Kd associated with "GCUGACGAUGUAGGAUAUCAGUAUAAUAAAUACUGAGAAGGACAUGAGGAUCACCCAUGUCUCCAACGUCAGCAGAGGAAACUC" reads 16.8

apparent Kd measured on "CGCACUGAUAGAGGAUAUGUUUUACAUGAGGAUCACCCAUGUGUACAAGGAUUAAUAUAUAAGUAACAGAAGGCUAUUUGUGCG" = 5.85

apparent Kd for "UAGCUUGACGCAGGAUAUCCAAGGCUGAAAUGAGGAGAAGGGCGCCAAACAUGAGGAUCACCCAUGUAUUAUGCAGGGUCCUCA" is 180

Measured apparent Kd, "AAAUUAAGAAGAGGAUAUUGACAUGAGGAUCACCCAUGUAUUUGGGAAUGUUUACUGAAUUCUUACGAGAAGGUUUACGAACUU" : 132

Per the records, this sequence ( "GUAGAGUCAGGAUAUACAGAAAGUGGCUGGAAAACAGUGGCACAUGAGGAUCACCCAUGUAGAAGGGACUCUAC" ) has apparent Kd equal to 215

// sample "GCCUGAUCAACUCUAGGCCCAGACAGAAGGGCACACGGUCUAAGUCACAUGAGGAUCACCCAUGUGCAGGAUAUGUCUCGACUC" , its apparent Kd was 21.4

apparent Kd reported for this sequence "CAGAUAAAAGUGUGGUCCUCGACAUGAGGAUCACCCAUGUACGAGGAUAUGUAAUAUACGGUAUAGCAGAAGGCGUAUGGGUGU" : 36.2

====

tested on: MS2 coat protein; test: apparent Kd, MS2 coat protein; higher = weaker binding; RNA-MaP array; FMN 200 µM where present; conditions: ligand present: flavin mononucleotide; designed as: ON switch for flavin mononucleotide
Label 1 for high-side apparent Kd (at or above 20 nM) and 0 for low-side apparent Kd (below it).

# count of solved cases: 6
SEQUENCE_INPUT	CATEGORY_LABEL
AUUAAACAUGAGGAUCACCCAUGUCAACAAAGUCGAGGAUAUGGGCAUAUUAUCUAAUAACCAGAAGGCGAAUAAU	1
GUCUCAGUUGGCUUCAAGGGCGGUCAGGAUAUGCUAACGUACAUGAGGAUCACCCAUGUCCAAGUGCAGAAGGGACAUACGCCA	0
GUAGGAAUCACAGGAUAUGCAUGCGCCGCUUCGAUCUACAUGAGGAUCACCCAUGUGUGGUCCGUGUAGAAGGGUGUUUGCUAC	1
UUUCAGCUCACAUGAGGAUCACCCAUGUCGGUUCGCCCGGACAGAAGGCACCCAUGACAAUGCGGUGAGGAUAUGUCAGCAAGG	0
CGCCGACAUGAGGAUCACCCAUGUCACAUCUGGUCAGGAUAUGGUAUGAUUUGGCUAUUGCCAGAAGGGACCUCAG	1
CUGCUCGUAGAGAAGGCGUGGGCACAUGAGGAUCACCCAUGUCGCAGUACGAGGAUAUUUGCCGGCCCGCCCAAAAUGGCGCGG	1

Enquiry: Reported apparent Kd reaches at least 20 nM for "GUAGCUAUCGGAGGAUAUCCUUAGCGGAAACGCACAUGAGGAUCACCCAUGUAAAUAAAUAAUUGGGAGAAGGCCGAUAGCUAC" ?
Return: 0

Enquiry: Evaluate "GAUAAACAUGAGGAUCACCCAUGUGUGAAUAUGGGAGGAUAUACGUGGACCGUAGUCCGCGUAGAAGGCCUAAUUG" : apparent Kd at minimum 20 nM?
Return: 1

Enquiry: Kindly determine if apparent Kd recorded for "UAAAUUAUACAAGGAUAUCUAUCGUAGUUUAGACUUACAUGAGGAUCACCCAUGUUAAUAUGUUUAGAGAAGGUGUAUUUUCAG" is above or exactly 20 nM.
Return: 1

Enquiry: Is the recorded value of apparent Kd equal to or greater than 20 nM for this sequence? "ACAUGAGGAUCACCCAUGUUGAAUUAGGAUAUUUGACUGCACAUGAGGUUCACCCAUGUUCAACCGGAGAAGGGAUUAAUAAUU"
Return: 1

Enquiry: Given "GGUCCAUAAUGAGGAUAUGGCACCUUAUUGGUGCCAGAAGGCAUGUCUAUAGACAUGAGGAUCACCCAUGUAAUAAAUUGGACC" , state whether its apparent Kd is at least 20 nM.
Return: 1

Enquiry: Evaluate "UGGUACUAGGGAGGAUAUGGAAAGAUACAUGAGGAUCACCCAUGUUUAAGAAUGCCGAGAGGCAACUAGAAGGCCCUAGUACCU" : apparent Kd at minimum 20 nM?
Return: 0

Enquiry: I'd appreciate it if you could say whether "GUAUAUAUUACAUGAGGAUCACCCAUGUCAGAACGGGUAAUCAGAAGGUAUUAUUAGAGAAAGGGUAAGGAUAUGAUUAUAUAU" has apparent Kd at least equal to 20 nM.
Return: 1

Enquiry: Kindly determine if apparent Kd recorded for "CGGUAAACCACAGGAUAUGGCUAGUAUAACUAGCCAGAAGGGUGGUCGAAACCAUGUAAAUACAUGAGGAUCACCCAUGUAUCC" is above or exactly 20 nM.
Return: 1

Enquiry: Would you say "GGAGAACAUGAGGAUCACCCAUGUGAGAGGGAUGUAGGAUAUGUGAGGAGUAAAGGAGGGACAGAAGGACAGAGAU" shows apparent Kd at minimum 20 nM?
Return: 1
